Data credit: patent US11753445B2

Assay Details: Stability in mouse plasma, peptides 10 uM (Example 15)
Assay type: in vitro ADME
Assay Setup: pooled mouse plasma; mouse plasma 37° C.; peptide 10 uM; 180 min; read-out: % Remaining at Each Time Point: 180 min
Mark each entry YES if its remaining at 3 h, 10 uM sits below 7%, and NO for all others.

Request: Lab note: remaining at 3 h, 10 uM threshold 7%. Does this substance come in strictly under it? H-WQEMNYIFYPR-OH [compound 284]
Response: NO

Now turn to the next substance.
Request: Lab note: remaining at 3 h, 10 uM threshold 7%. Does this substance come in strictly under it? H-MRWQEMGYIFYPRKL-OH [compound 45]
Response: YES

###

Assay Details: Stability in mouse plasma, peptides 100 uM (Example 14)
Type: in vitro ADME
Assay Setup: pooled mouse plasma; mouse plasma 37° C.; peptide 100 uM; 60 min; read-out: % Remaining at Each Time Point: 60 min
Mark each entry yes if its remaining at 1 h, 100 uM sits below 20%, and no for all others.

Request: Lab note: remaining at 1 h, 100 uM threshold 20%. Does this substance come in strictly under it? H-MRWQEMGYIFYPR-OH [compound 47]
Response: no

Request: Lab note: remaining at 1 h, 100 uM threshold 20%. Does this substance come in strictly under it? H-ARWQEMGYIFYPRKLR-OH [compound 6]
Response: no

Request: Lab note: remaining at 1 h, 100 uM threshold 20%. Does this substance come in strictly under it? H-MRWQEMGYIAYPRKLR-OH [compound 15]
Response: no

Request: Lab note: remaining at 1 h, 100 uM threshold 20%. Does this substance come in strictly under it? H-MRWQEMGYIFYPRKLA-OH [compound 21]
Response: no

Next:
Request: Lab note: remaining at 1 h, 100 uM threshold 20%. Does this substance come in strictly under it? Ac-MRWQEMGYIFYPR-NH2 [compound 61]
Response: no

Request: Lab note: remaining at 1 h, 100 uM threshold 20%. Does this substance come in strictly under it? H-MRAQEMGYIFYPRKLR-OH [compound 8]
Response: yes

Request: Lab note: remaining at 1 h, 100 uM threshold 20%. Does this substance come in strictly under it? H-MRWQEMGYIFYPRALR-OH [compound 19]
Response: yes

###

Assay Details: Stability in mouse plasma, peptides 100 uM (Example 14)
Assay type: in vitro ADME
Assay Setup: pooled mouse plasma; mouse plasma 37° C.; peptide 100 uM; 120 min; read-out: % Remaining at Each Time Point: 120 min
Mark each entry satisfied if its remaining at 2 h, 100 uM sits below 20%, and not satisfied for all others.

Request: Lab note: remaining at 2 h, 100 uM threshold 20%. Does this substance come in strictly under it? H-MRWQEMNYIFYPR-OH [compound 208]
Response: not satisfied

Request: Lab note: remaining at 2 h, 100 uM threshold 20%. Does this substance come in strictly under it? H-RWQEMNYIFYPR-OH [compound 210]
Response: not satisfied

Request: Lab note: remaining at 2 h, 100 uM threshold 20%. Does this substance come in strictly under it? H-MRAQEMGYIFYPRKLR-OH [compound 8]
Response: satisfied

Request: Lab note: remaining at 2 h, 100 uM threshold 20%. Does this substance come in strictly under it? H-RWQEMGYIFYPRALR-OH [compound 215]
Response: satisfied

Request: Lab note: remaining at 2 h, 100 uM threshold 20%. Does this substance come in strictly under it? H-MRWQEMGYIFYPRNLR-OH [compound 213]
Response: satisfied

Next:
Request: Lab note: remaining at 2 h, 100 uM threshold 20%. Does this substance come in strictly under it? H-ARWQEMGYIFYPRKLR-OH [compound 6]
Response: satisfied

Request: Lab note: remaining at 2 h, 100 uM threshold 20%. Does this substance come in strictly under it? H-MRWQEMGYIFYPRALR-OH [compound 19]
Response: satisfied

Request: Lab note: remaining at 2 h, 100 uM threshold 20%. Does this substance come in strictly under it? H-MRWQEMQYIFYPR-OH [compound 209]
Response: not satisfied
